Please provide measured BChE (Human) inhibitory activity (%) ± SD for the entries that follow.
target: BChE (Human) (Homo sapiens); construct: purchased Sigma-Aldrich (Steinheim, Germany); assay: BChE inhibition, Ellman's method; assay type: biochemical; conditions: 10^-5 M
Sequence (P06276 29-602): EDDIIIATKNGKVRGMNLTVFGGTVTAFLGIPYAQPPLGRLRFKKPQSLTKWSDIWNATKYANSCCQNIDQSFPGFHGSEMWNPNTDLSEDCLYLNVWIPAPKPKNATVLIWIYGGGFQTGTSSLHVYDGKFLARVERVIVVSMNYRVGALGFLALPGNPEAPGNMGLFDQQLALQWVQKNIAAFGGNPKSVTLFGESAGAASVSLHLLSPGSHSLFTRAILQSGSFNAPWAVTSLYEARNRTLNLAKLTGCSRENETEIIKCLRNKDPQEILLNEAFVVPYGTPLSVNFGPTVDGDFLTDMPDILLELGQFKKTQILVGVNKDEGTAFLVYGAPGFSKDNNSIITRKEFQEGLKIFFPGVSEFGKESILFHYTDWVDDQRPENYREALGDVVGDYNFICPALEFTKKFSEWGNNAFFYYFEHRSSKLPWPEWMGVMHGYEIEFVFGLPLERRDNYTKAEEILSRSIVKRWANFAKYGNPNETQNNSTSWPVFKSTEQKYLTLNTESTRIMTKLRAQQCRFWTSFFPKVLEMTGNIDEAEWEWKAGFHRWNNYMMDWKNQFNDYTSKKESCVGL

Specify measured BChE (Human) inhibitory activity (%) ± SD for O=C(CSC(=S)N1CCN(c2ccc(Cl)cc2)CC1)Nc1c2ccccc2nc2ccccc12 . 42.99±1.02%

Specify measured BChE (Human) inhibitory activity (%) ± SD for CC1CCCCN1C(=S)SCC(=O)Nc1c2ccccc2nc2ccccc12 (stereo not shown) . 48.19±1.08%

Specify measured BChE (Human) inhibitory activity (%) ± SD for O=C(CSC(=S)N1CCN(C(c2ccccc2)c2ccccc2)CC1)Nc1c2ccccc2nc2ccccc12 . 92.54±2.45%

Specify measured BChE (Human) inhibitory activity (%) ± SD for O=C(CSC(=S)N1CCN(CCO)CC1)Nc1c2ccccc2nc2ccccc12 . 55.00±1.20%
